Provenance of the data: PubChem BioAssay (NCI)

System: SF-295 CNS
assayText: NCI tumour cell line growth inhibition, 48 h
parameter: TGI (µM)
Give bare numbers, in µM.

Please review the following examples before continuing.
>  <testSmiles>
O=C(O)CN(CCN(CC(=O)O)CC(=O)O)CC(=O)O.[Cu+2].[Na+]

>  <testSystem>
SF-295 CNS

>  <quantityUnit>
µM

>  <TGI>
63.3

$$$$
>  <testSmiles>
CN(C)CCCn1c(-c2ccc(Br)cc2)csc1=Nc1ccccc1

>  <testSystem>
SF-295 CNS

>  <quantityUnit>
µM

>  <TGI>
25.4

$$$$
>  <testSmiles>
CCOC(=O)Nc1cc2c(c(N)n1)N=C(c1ccc(Cl)cc1Cl)CN2

>  <testSystem>
SF-295 CNS

>  <quantityUnit>
µM

>  <TGI>
0.0108

$$$$

From here, focus on the item given below.
Req: Request the reported TGI associated with "COc1cc(/C=N\Nc2ccccc2)ccc1OC(=O)c1ccccc1"
Resp: 10.7
